target: phosphoinositide-specific phospholipase C (PI-PLC) (Bacillus cereus, UniProt P14262); experiment: inhibition of phospholipase activity of commercial PI-PLC on PI-containing large unilamellar vesicles (turbidity/aggregation assay)
Sequence (P14262 32-329 limits assumed): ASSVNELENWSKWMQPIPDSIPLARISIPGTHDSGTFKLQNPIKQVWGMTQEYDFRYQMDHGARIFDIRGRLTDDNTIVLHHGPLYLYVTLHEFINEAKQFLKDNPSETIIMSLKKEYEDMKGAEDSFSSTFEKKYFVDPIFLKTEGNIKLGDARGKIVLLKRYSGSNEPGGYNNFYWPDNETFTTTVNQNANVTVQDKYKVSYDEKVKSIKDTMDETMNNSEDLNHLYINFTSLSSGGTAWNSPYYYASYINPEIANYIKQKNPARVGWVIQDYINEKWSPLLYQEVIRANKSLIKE
pIC50: −log10 of the molar value.
property-measured: pIC50

compound	measurement
NCCc1ccc(S(=O)(=O)F)cc1 [AEBSF]	4.74

###

Biological target: cold-active Vibrio alkaline phosphatase (VAP) (Vibrio sp. G15-21)
Sequence (Q93P54 20-521): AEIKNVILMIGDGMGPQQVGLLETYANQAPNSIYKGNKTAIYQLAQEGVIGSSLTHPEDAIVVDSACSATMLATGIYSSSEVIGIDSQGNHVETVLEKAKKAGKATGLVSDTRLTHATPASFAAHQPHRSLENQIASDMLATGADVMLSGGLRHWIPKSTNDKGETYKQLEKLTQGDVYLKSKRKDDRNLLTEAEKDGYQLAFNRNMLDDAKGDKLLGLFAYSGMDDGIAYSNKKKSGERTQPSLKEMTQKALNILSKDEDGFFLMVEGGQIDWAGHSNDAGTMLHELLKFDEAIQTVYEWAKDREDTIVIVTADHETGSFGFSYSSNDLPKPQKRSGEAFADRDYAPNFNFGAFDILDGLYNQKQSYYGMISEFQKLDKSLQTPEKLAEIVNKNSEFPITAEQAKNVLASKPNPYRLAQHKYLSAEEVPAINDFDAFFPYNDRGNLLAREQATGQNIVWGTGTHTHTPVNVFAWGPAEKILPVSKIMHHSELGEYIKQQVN

molecule	IC50
NCCc1ccc(S(=O)(=O)F)cc1	350 µM
